Data origin: patent US12421249B2

Target: APOL1 G1 (Homo sapiens, UniProt O14791, I384M/S342G)
Sequence (O14791 28-398 S342G/I384M): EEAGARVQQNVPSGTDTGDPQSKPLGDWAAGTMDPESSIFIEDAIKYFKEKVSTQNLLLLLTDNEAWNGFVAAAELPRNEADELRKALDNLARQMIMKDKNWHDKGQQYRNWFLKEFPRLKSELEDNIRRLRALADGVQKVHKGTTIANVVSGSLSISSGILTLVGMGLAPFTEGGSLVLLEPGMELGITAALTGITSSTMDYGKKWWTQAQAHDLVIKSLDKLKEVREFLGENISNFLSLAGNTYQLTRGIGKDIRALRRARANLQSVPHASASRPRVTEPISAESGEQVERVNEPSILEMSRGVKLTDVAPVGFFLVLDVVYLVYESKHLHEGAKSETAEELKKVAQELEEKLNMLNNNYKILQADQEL
Experiment: Trypanosoma brucei brucei Lysis Assay Using APOL1 Recombinant Protein (AlamarBlue viability readout)
Assay type: cell-based
Settings: Trypanosome Assay; IP50 = IC50 for cell proliferation; read-out: Trypanosome Assay IP50
Text: Trypanosoma brucei brucei is a blood stream parasite to which human, gorillas, and baboons are immune due to the presence of the APOL1 protein in their HDL particles. […] Briefly, the AlamarBlue active compound, resazurin, a blue, water soluble, non-toxic and cell permeable molecule, which can be followed by absorbance, is reduced by various metabolic pathways into resorufin, a red compound which can be followed by either absorbance or fluorescence. […]

# compound, IC50
data = [
    ("C[C@H]1C[C@@]2(C[C@@H](c3ncc(C(F)(F)F)[nH]3)N1)OCCc1cc(Cl)sc12 (racemic)", "> 500 nM"),
    ("C[C@H]1C[C@@]2(C[C@@H](c3c[nH]cn3)N1)OCCc1cc(Cl)sc12 (racemic)", "< 50 nM"),
    ("C[C@H]1C[C@@]2(C[C@@H](c3cnc(N4CCN(C)CC4)nc3)N1)OCCc1cc(Cl)sc12 (racemic)", "< 50 nM"),
    ("C[C@@H]1CC2(C[C@@H](c3cn(C)nn3)N1)OCCc1cc(Cl)sc12 (single isomer, unassigned)", "> 500 nM"),
    ("C[C@@H]1CC2(C[C@H](C)N1)OCCc1cc(C(F)(F)F)sc12 (single isomer, unassigned)", "< 50 nM"),
    ("C[C@H]1C[C@@]2(C[C@@H](c3cnc(-c4ccccc4)o3)N1)OCCc1cc(Cl)sc12 (racemic)", "< 50 nM"),
    ("C[C@H]1C[C@@]2(C[C@@H](c3ccnc(O)c3)N1)OCCc1cc(Cl)sc12 (racemic)", "50 to 500 nM"),
    ("COc1ccccc1-c1ncc([C@@H]2C[C@]3(C[C@H](C)N2)OCCc2cc(Cl)sc23)cn1 (racemic)", "< 50 nM"),
    ("C[C@@H]1CC2(C[C@H](C)N1)OCCc1cc(Cl)sc12 (single isomer, unassigned)", "50 to 500 nM"),
    ("CNC(=O)c1ccc(C2CC3(CC(C)N2)OCCc2cc(Cl)sc23)cc1 (stereo not drawn)", "< 50 nM"),
    ("Cc1cnc([C@@H]2C[C@]3(C[C@H](C)N2)OCCc2cc(Cl)sc23)o1 (racemic)", "50 to 500 nM"),
    ("C[C@H]1C[C@@]2(C[C@@H](c3cnn4ccccc34)N1)OCCc1cc(Cl)sc12 (racemic)", "< 50 nM"),
    ("CCc1cc2c(s1)C1(C[C@@H](c3cn(C)nn3)N[C@@H](C)C1)OCC2 (stereo in doubt)", "< 50 nM"),
    ("C[C@H]1C[C@@]2(C[C@@H](c3ccnn3C)N1)OCCc1cc(Cl)sc12 (racemic)", "> 500 nM"),
    ("CCOc1ccc([C@@H]2C[C@]3(C[C@H](C)N2)OCCc2cc(Cl)sc23)cc1O (racemic)", "< 50 nM"),
    ("CCC(O)Cn1cc([C@@H]2C[C@]3(C[C@H](C)N2)OCCc2cc(Cl)sc23)nn1 (mixture of isomers)", "50 to 500 nM"),
    ("Cc1ncc([C@@H]2C[C@]3(C[C@H](C)N2)OCCc2cc(Cl)sc23)cn1 (racemic)", "< 50 nM"),
    ("C[C@H]1C[C@@]2(C[C@@H](c3ccc(=O)n(C)c3)N1)OCCc1cc(Cl)sc12 (racemic)", "< 50 nM"),
    ("COCC1CC2(CC(c3cn(C)nn3)N1)OCCc1cc(Cl)sc12 (stereo not drawn)", "> 500 nM"),
    ("Cc1cc([C@@H]2C[C@]3(C[C@H](C)N2)OCCc2cc(Cl)sc23)on1 (racemic)", "< 50 nM"),
    ("COc1cccc([C@@H]2C[C@]3(C[C@H](C)N2)OCCc2cc(Cl)sc23)c1O (racemic)", "> 500 nM"),
    ("C[C@H]1C[C@@]2(C[C@@H](c3cccn4ccnc34)N1)OCCc1cc(Cl)sc12 (stereo in doubt)", "50 to 500 nM"),
    ("COc1cccc(C2CC3(CC(C)N2)OCCc2cc(Cl)sc23)n1 (mixture of isomers)", "50 to 500 nM"),
    ("Cc1nn(C)c2ncc(C3CC4(CC(C)N3)OCCc3cc(Cl)sc34)cc12 (stereo not drawn)", "< 50 nM"),
]
